The entries below come with measured % inhibition Apol 40' values attached.
experimental_target: P. falciparum apicoplast DNA polymerase (Pf-apPOL) (Plasmodium falciparum)
Sequence (Q8ILY1 entry or part of it): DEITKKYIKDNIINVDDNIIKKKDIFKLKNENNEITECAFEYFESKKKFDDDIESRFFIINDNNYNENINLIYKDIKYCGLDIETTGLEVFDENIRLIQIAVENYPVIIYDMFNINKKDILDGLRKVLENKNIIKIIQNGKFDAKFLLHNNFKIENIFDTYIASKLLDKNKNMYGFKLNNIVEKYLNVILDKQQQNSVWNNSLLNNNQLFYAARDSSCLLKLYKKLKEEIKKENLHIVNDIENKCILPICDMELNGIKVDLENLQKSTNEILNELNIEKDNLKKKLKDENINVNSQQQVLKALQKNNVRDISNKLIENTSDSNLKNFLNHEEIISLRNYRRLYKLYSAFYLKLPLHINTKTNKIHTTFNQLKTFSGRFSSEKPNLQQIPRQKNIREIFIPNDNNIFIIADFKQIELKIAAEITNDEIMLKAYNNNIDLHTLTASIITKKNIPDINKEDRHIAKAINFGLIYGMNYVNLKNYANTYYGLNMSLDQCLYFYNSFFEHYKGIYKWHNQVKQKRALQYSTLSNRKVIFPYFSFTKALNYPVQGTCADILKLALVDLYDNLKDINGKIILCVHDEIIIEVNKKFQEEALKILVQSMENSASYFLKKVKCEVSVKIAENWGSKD
run_description: Fluorescence-based high-throughput DNA polymerase assay (molecular beacon), primary screen and dose-response;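 note: compound concentration given in µM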
Format: biochemical
measurement_context: DRC-2; 40'; concentration 2.5
measured_quantity: % inhibition Apol 40' (%)

[
  {
    "compound": "Cn1nc(-c2nnc(-c3ccccc3F)o2)c2c1CCN(C(=O)c1ccccc1Cl)C2 [Molecule 34]",
    "measured_quantity": "% inhibition Apol 40'",
    "unit_of_measure": "%",
    "readout_number": 22
  },
  {
    "compound": "CCCCc1ccc(NC(=O)CSc2nc(O)c(C#N)c(C3CCCCC3)n2)c(C)c1 [Molecule 8]",
    "measured_quantity": "% inhibition Apol 40'",
    "unit_of_measure": "%",
    "readout_number": 1.81
  },
  {
    "compound": "COc1ccc(C=C2Oc3c(ccc4c3CN(c3ccc5c(c3)OCO5)CO4)C2=O)cc1OC [KU0199426]",
    "measured_quantity": "% inhibition Apol 40'",
    "unit_of_measure": "%",
    "readout_number": 6
  },
  {
    "compound": "O=c1nc(/C=C/c2ccc(Br)cc2)oc2ccccc12 [KU0052629]",
    "measured_quantity": "% inhibition Apol 40'",
    "unit_of_measure": "%",
    "readout_number": 8
  },
  {
    "compound": "Cc1cc(C)c(O)c(/N=C/c2cc([N+](=O)[O-])cc(Br)c2O)c1 [KU0046272]",
    "measured_quantity": "% inhibition Apol 40'",
    "unit_of_measure": "%",
    "readout_number": 2
  },
  {
    "compound": "COc1ccc(-c2c(C(F)(F)F)nn3c(=O)cc(-c4cccc([N+](=O)[O-])c4)[nH]c23)cc1 [Molecule 16]",
    "measured_quantity": "% inhibition Apol 40'",
    "unit_of_measure": "%",
    "readout_number": 13
  },
  {
    "compound": "CCCCCCCCCCCCCCCCCC(=O)CCN(C)C [KU0271928]",
    "measured_quantity": "% inhibition Apol 40'",
    "unit_of_measure": "%",
    "readout_number": 2.22
  },
  {
    "compound": "Cl.NC(CO)C(=O)NNCc1ccc(O)c(O)c1O (stereo not shown) [KU0260493]",
    "measured_quantity": "% inhibition Apol 40'",
    "unit_of_measure": "%",
    "readout_number": -1.63
  },
  {
    "compound": "CCCCOC(=O)CCCCCN1C(=O)C(=Cc2ccc(OC)cc2)SC1=S [Molecule 75]",
    "measured_quantity": "% inhibition Apol 40'",
    "unit_of_measure": "%",
    "readout_number": -0.735
  },
  {
    "compound": "N#Cc1c(C2CCCCC2)nc(Sc2ccc(C(F)(F)F)cc2[N+](=O)[O-])[nH]c1=O [Molecule 20]",
    "measured_quantity": "% inhibition Apol 40'",
    "unit_of_measure": "%",
    "readout_number": 6.56
  }
]
